ratio to parent for assorted variants
B1: H2-Kb / B2 (parent)
chain 1: GEQVEQRPPHLSVREGDSAVIICTYTDPNSYYFFWYKQEPGAGLQLLMKVFSSTEINEGQGFTVLLNKKDKQLSLNLTAAHPGDSAVYFCAVSQMSNYNVLYFGSGTKLTVEP
chain 2: EAAVTQSPRNKVAVTGGKVTLSCNQTNNHNNMYWYRQDTGHGLRLIHYSYGAGSTEKGDIPDGYKASRPSQENFSLILELATPSQTSVYFCASGTGGSGQLYFGEGSKLTVL
chain 3: not shown
chain 4: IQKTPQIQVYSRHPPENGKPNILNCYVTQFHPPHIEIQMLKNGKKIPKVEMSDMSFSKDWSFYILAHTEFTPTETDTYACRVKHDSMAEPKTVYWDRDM
chain 5: SIINFEKL

Variants of: B1
Experiment Description: % of reporter cells activated (NFAT-GFP), raw; also: test concentration or dose not given here
Assay Context: with B2; scale: % of reporter cells activated
// return just the number, without any unit appended

Take a look at these entries with their results.
Sequence Change	ratio to parent
chain 5 I2T	1.68
chain 5 I3G	0.568
chain 5 I3E	0.432
chain 5 L8P	3.65
chain 5 L8T	1.29

## Task What value of measured ratio to parent is listed for chain 5 K7E ?
## Result 1.49

Numbers sourced from paper PMC11480844.
